Recorded values, source paper PMC8911025.

tested on: S. aureus; test: Known antibacterial activity of literature chalcones used for QSAR; format: cell-based, Staphylococcus aureus; settings: Aexp = 0.1 + log (k/MIC), k = 1.250

[
  {
    "SMILES": "O=C(O)c1ccc(C(=O)/C=C/c2cc(C(F)(F)F)cc(C(F)(F)F)c2)cc1",
    "Aexp": 2.896
  },
  {
    "SMILES": "O=C(O)c1ccc(C(=O)/C=C/c2cc(Cl)cc(Cl)c2)cc1",
    "Aexp": 1.595
  },
  {
    "SMILES": "O=C(O)c1ccc(C(=O)/C=C/c2ccc(C(F)(F)F)cc2)cc1",
    "Aexp": 1.021
  }
]

----------
system: S. aureus; experiment: Known antibacterial activity of literature chalcones used for QSAR; format: cell-based, Staphylococcus aureus; conditions: Aexp = 0.1 + log (k/MIC), k = 1.250
# strict inequality: Aexp < 2 yields TRUE, everything else yields FALSE

[
  {
    "SMILES": "O=C(/C=C/c1ccc(Cl)cc1Cl)c1ccc(O)cc1F",
    "CLASS": "TRUE"
  },
  {
    "SMILES": "O=C(/C=C/c1ccc(O)c(O)c1)c1ccccc1",
    "CLASS": "TRUE"
  },
  {
    "SMILES": "COc1ccc(/C=C/C(=O)c2ccccc2)cc1O",
    "CLASS": "TRUE"
  },
  {
    "SMILES": "O=C(O)c1ccc(C(=O)/C=C/c2cc(Br)cc(Br)c2)cc1",
    "CLASS": "FALSE"
  },
  {
    "SMILES": "COc1ccc(/C=C/C(=O)c2ccc(Cl)cc2)cc1O",
    "CLASS": "TRUE"
  },
  {
    "SMILES": "O=C(/C=C/c1ccc(Cl)cc1Cl)c1ccc(O)cc1",
    "CLASS": "TRUE"
  },
  {
    "SMILES": "O=C(O)c1ccc(C(=O)/C=C/c2cccc(C(F)(F)F)c2)cc1",
    "CLASS": "TRUE"
  },
  {
    "SMILES": "O=C(O)c1ccc(C(=O)/C=C/c2cccc(Cl)c2)cc1",
    "CLASS": "TRUE"
  },
  {
    "SMILES": "O=C(/C=C/c1c(Cl)ccc(Cl)c1Cl)c1ccc(O)cc1",
    "CLASS": "FALSE"
  },
  {
    "SMILES": "COc1cc(/C=C/C(=O)c2ccc(Cl)cc2)cc(OC)c1O",
    "CLASS": "TRUE"
  }
]

----------
assay: Cell viability assay (CellTiter Glo); assay type: cell-based; conditions: human; HEp-2 cells, 48 h, CellTiter Glo; read-out: IC50 (50% cytotoxic concentration)
# strict inequality: IC50 at 48 h < 40 µg/mL yields class 1, everything else yields class 0

[
  {
    "SMILES": "Cc1cc(C(=O)/C=C/c2ccc3cccccc2-3)c2cccccc1-2",
    "CLASS": "class 1"
  },
  {
    "SMILES": "O=C(/C=C/c1cc(Br)c2cccccc1-2)c1ccc2cccccc1-2",
    "CLASS": "class 0"
  },
  {
    "SMILES": "O=C(/C=C/c1ccc2cccccc1-2)c1ccc(O)cc1",
    "CLASS": "class 0"
  },
  {
    "SMILES": "O=C(/C=C/c1cc(Cl)c2cccccc1-2)c1ccc2cccccc1-2",
    "CLASS": "class 0"
  },
  {
    "SMILES": "O=C(/C=C/c1ccc2cccccc1-2)c1ccc2ccccc2c1",
    "CLASS": "class 0"
  }
]

----------
tested on: S. aureus; assay: Known antibacterial activity of literature chalcones used for QSAR; format: cell-based, Staphylococcus aureus; conditions: Aexp = 0.1 + log (k/MIC), k = 1.250
# strict inequality: Aexp < 1 yields true (1), everything else yields false (0)

[
  {
    "SMILES": "O=C(O)c1ccc(C(=O)/C=C/c2cccc([N+](=O)[O-])c2)cc1",
    "CLASS": "true (1)"
  },
  {
    "SMILES": "O=C(/C=C/c1ccccc1O)c1ccccc1",
    "CLASS": "false (0)"
  },
  {
    "SMILES": "O=C(O)c1ccc(C(=O)/C=C/c2cccc(Br)c2)cc1",
    "CLASS": "false (0)"
  },
  {
    "SMILES": "COc1cc(/C=C/C(=O)c2ccccc2)ccc1O",
    "CLASS": "true (1)"
  },
  {
    "SMILES": "O=C(/C=C/c1ccc(O)cc1)c1ccc(Cl)cc1",
    "CLASS": "false (0)"
  },
  {
    "SMILES": "O=C(/C=C/c1ccc(O)cc1)c1ccccc1",
    "CLASS": "false (0)"
  },
  {
    "SMILES": "COc1cc(/C=C/C(=O)c2ccc(Cl)cc2)ccc1O",
    "CLASS": "true (1)"
  },
  {
    "SMILES": "O=C(/C=C/c1ccc(O)c(O)c1)c1ccc(Cl)cc1",
    "CLASS": "false (0)"
  },
  {
    "SMILES": "O=C(O)c1ccc(C(=O)/C=C/c2ccc(Cl)cc2Cl)cc1",
    "CLASS": "false (0)"
  },
  {
    "SMILES": "O=C(/C=C/c1cccc(Cl)c1Cl)c1ccc(O)cc1",
    "CLASS": "false (0)"
  },
  {
    "SMILES": "O=C(/C=C/c1cccc(O)c1)c1ccccc1",
    "CLASS": "true (1)"
  },
  {
    "SMILES": "O=C(/C=C/c1cccc(O)c1)c1ccc(Cl)cc1",
    "CLASS": "false (0)"
  },
  {
    "SMILES": "O=C(O)c1ccc(C(=O)/C=C/c2ccccc2C(F)(F)F)cc1",
    "CLASS": "true (1)"
  },
  {
    "SMILES": "O=C(/C=C/c1cc(C(F)(F)F)cc(C(F)(F)F)c1)c1ccc(O)cc1",
    "CLASS": "false (0)"
  },
  {
    "SMILES": "Cc1cc(C)cc(/C=C/C(=O)c2ccc(C(=O)O)cc2)c1",
    "CLASS": "false (0)"
  },
  {
    "SMILES": "O=C(/C=C/c1ccccc1O)c1ccc(Cl)cc1",
    "CLASS": "false (0)"
  }
]

----------
Each entry below lists one item and its recorded IC50 at 48 h value.
test: Cell viability assay (CellTiter Glo); format: cell-based; conditions: human; HEp-2 cells, 48 h, CellTiter Glo; read-out: IC50 (50% cytotoxic concentration)
EXPERIMENTAL ENDPOINT: IC50 at 48 h (µg/mL)

[
  {
    "COMPOUND": "O=C(/C=C/c1ccc2cccccc1-2)c1cccc2ccccc12",
    "EXPERIMENTAL ENDPOINT": "IC50 at 48 h",
    "MEASURED VALUE": 61.8
  },
  {
    "COMPOUND": "Nc1ccc(C(=O)/C=C/c2ccc3cccccc2-3)cc1",
    "EXPERIMENTAL ENDPOINT": "IC50 at 48 h",
    "MEASURED VALUE": 114
  },
  {
    "COMPOUND": "Cc1cc(/C=C/C(=O)c2ccc3cccccc2-3)c2cccccc1-2",
    "EXPERIMENTAL ENDPOINT": "IC50 at 48 h",
    "MEASURED VALUE": 52.5
  },
  {
    "COMPOUND": "O=C(/C=C/c1ccc2cccccc1-2)c1ccc2cccccc1-2 [Compound 6, (E)-1,3-Di(azulen-1-yl)prop-2-en-1-one]",
    "EXPERIMENTAL ENDPOINT": "IC50 at 48 h",
    "MEASURED VALUE": 78.6
  }
]

----------
Each entry below lists one item and its recorded Aexp value.
system: S. aureus; test: Known antibacterial activity of literature chalcones used for QSAR; assay type: cell-based, Staphylococcus aureus; conditions: Aexp = 0.1 + log (k/MIC), k = 1.250

[
  {
    "SMILES": "COc1cccc(/C=C/C(=O)c2ccc(Cl)cc2)c1O",
    "Aexp": 0.799
  },
  {
    "SMILES": "O=C(/C=C/c1cccc(Br)c1)c1ccc(O)cc1",
    "Aexp": 1.896
  },
  {
    "SMILES": "O=C(/C=C/c1ccc(Cl)cc1Cl)c1ccc(O)c(F)c1",
    "Aexp": 0.720
  },
  {
    "SMILES": "COc1cccc(/C=C/C(=O)c2ccccc2)c1O",
    "Aexp": 1.100
  },
  {
    "SMILES": "O=C(O)c1ccc(C(=O)/C=C/c2ccccc2Br)cc1",
    "Aexp": 1.021
  }
]
